B1: NLV2 TCR alpha chain (CDR3α only) (parent)
chain: AGPMKTSYDKVI

Variants of: B1
assayDetails: T-Switch: Jurkat TCRβ−/− cells expressing a CDR3 saturation-mutagenesis library, stained with two peptide-HLA-A*02:01 tetramers (original and novel peptide) plus anti-CD3, FACS-sorted into four gates, gDNA sequenced
measurementConditions: with both tetramers (double-negative gate, binds neither): HLA-A*02:01 with … and with …, tetramers 1 µg/mL, 30 min on ice, SP, DP and SW gates expanded about 10 days between rounds ('two to three rounds of selection' in the Methods), gate DN: OPPOSITE: higher = more of the variant in the gate that binds neither peptide = LESS binding (or no expression; inferred). Fold enrichment of the CDR3 variant in one FACS gate of a two-tetram, unresolved parent, parent is a CDR3 fragment, scale: fold enrichment, numbering: sequential-on-construct, sequence starts at 1
Use 0.9 as the dividing line for enrichment, with the line itself on the yes (1) side and lower values as no (0).

[[record]]
variantspec = "[…] (CDR3 as printed); S7M derived by comparing it with the table's wild-type CDR3 AGPMKTSYDKVI"
cat = "yes (1)"

[[record]]
variantspec = "[…] (CDR3 as printed); D9F derived by comparing it with the table's wild-type CDR3 AGPMKTSYDKVI"
cat = "yes (1)"


Evaluate […] (CDR3 as printed); Y8H derived by comparing it with the table's wild-type CDR3 AGPMKTSYDKVI : enrichment at minimum 0.9?
yes (1)
